# reported z-score; entries follow
# tested system: Homeobox protein Hox-A13 (Mus musculus)
# test description: inhibitors of HoxA13-DNA binding, primary screen, biochemical, fluorescence polarization, labeled oligonucleotide (AID 1185)
# run parameters: 15 min, higher = more signal, called active from +8 up or from −8 down
Form field (numeric): enter value without unit.

Please review the following examples before continuing.
* O=C1C2C=CC(C(O)c3ccc([N+](=O)[O-])cc3)N(Nc3ccc([N+](=O)[O-])cc3)C2C(=O)N1c1ccccc1 (stereo unspecified) | -4.02
* C#C[C@@H](CC)O[Si](C#Cc1ccc(Oc2ccccc2)cc1)(C(C)C)C(C)C | -0.279
* CCN1C(=O)[C@H]2[C@H]3[C@H](O)[C@H](O)CC(=NO[C@@H]4O[C@H](CO)[C@@H](O)[C@H](O)[C@H]4O)[C@@H]3CC[C@H]2C1=O | -0.0696
* CC(C)CON=C1C[C@@H](O)[C@@H](O)[C@@H]2[C@@H]3C(=O)N(C[C@@H]4CCCO4)C(=O)[C@@H]3CC[C@H]12 | -1.58
* CC(C)[C@@H](OCc1ccccc1)[C@H](C)C=NOC[C@@H](C)[C@H](OCc1ccccc1)C(C)C | 0.24
* CC(C)(C)N1C(=O)[C@H]2[C@H]3[C@H](O)[C@H](O)CC(=NO[C@@H]4O[C@H](CO)[C@@H](O)[C@H](O)[C@H]4O)[C@@H]3CC[C@H]2C1=O | 0.0059
* COC(=O)[C@H]1COC(c2ccc(OCCCO)cc2)=N1 | -3.56
* COc1cccc([C@@H]2Oc3ccc(Br)cc3C(=O)[C@H]2O)c1 | -1.54
* CS(=O)(=O)CCOC(=O)C1=CC(CCCO)=CC(c2cccs2)N(Cc2cccc(OC(F)(F)F)c2)C=C1C(=O)OCCS(C)(=O)=O (stereo unspecified) | -4.22
* CO[C@H]1COC(=O)[C@@H]2CCCN2C(=O)[C@@H](C)COC(=O)CC=C[C@@H]1C | -0.54

Looking up CCCCC(=C=CC[C@H](O)c1ccccc1OCCO)C[C@H](O)COCc1ccccc1 , I found its z-score recorded as -4.61

Looking up CC(CCN1CCc2nc(-c3ccccc3)c(-c3ccccc3)cc2C1)=NOC[C@@H](C)[C@H](OCc1ccccc1)C(C)C , I found its z-score recorded as -0.978

Looking up O=C1[C@H]2[C@H]3[C@H](O)[C@H](O)CC(=NO[C@@H]4O[C@H](CO)[C@@H](O)[C@H](O)[C@H]4O)[C@@H]3CC[C@H]2C(=O)N1c1ccc(F)cc1F , I found its z-score recorded as 0.036

Looking up CN1C(=O)C2C(C1=O)C1C=C(CCCO)C2C(c2ccc(CN3CCCC3)cc2)N1C (stereo unspecified) , I found its z-score recorded as -7.16

Looking up COc1ccc(O[C@H]2C=C[C@@H](c3ccccc3)O[C@@H]2COC(=O)N2CCCCC2)cc1 , I found its z-score recorded as -3.83

Looking up CCOC(=O)NN=C1C[C@@H](O)[C@@H](O)[C@@H]2[C@@H]3C(=O)N(CC)C(=O)[C@@H]3CC[C@@H]12 , I found its z-score recorded as 0.443

----------
# Tested on: Chordin-like protein 2 (CHRDL2)
# test description: CHRDL2 small-molecule binders, primary screen, biochemical, small-molecule microarray, 635 nm fluorescence (AID 1126);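 note: printed compound slides probed with Chrdl2 protein at 4 µg/mL for 1 h at 4 C; score merges 667 nm emission intensity with signal to noise over three replicate slides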
# run parameters: small-molecule microarray binding, fluorescence 635 nm; higher = more signal
measure name: composite z-score
Form field (numeric): enter value without unit.

- COc1ccc([Si](C)(C)[C@@H]2[C@@H](CCO)O[C@]3(C(=O)N(Cc4ccc(NC(C)=O)cc4)c4ccccc43)[C@H]2C)cc1: 0.465

Looking up COCCOC(=O)N1C(=O)[C@@]2(c3cc(C#CC4(O)CCCCCC4)ccc31)[C@H](C(=O)N1CCN(c3ncccn3)CC1)[C@H]1C(=O)O[C@H](c3ccccc3)[C@H](c3ccccc3)N1[C@@H]2c1ccc(OCCO)cc1 , I found its composite z-score recorded as 0.659

Looking up COC(=O)C1=C(C)N(Cc2ccccc2)[C@]23O[C@](C(=O)OC)(C(=O)N2[C@@H]1c1ccccc1)[C@H]1CCOC(=O)[C@H]13 , I found its composite z-score recorded as 0.702

Looking up COc1ccc(O[C@H]2C=C[C@@H](c3ccccc3)O[C@@H]2COC(=O)CCC(C)=NO[C@@H](C)c2cc(-c3c(C)cc(C)cc3C)no2)cc1 , I found its composite z-score recorded as -0.654

Looking up CC[C@@H](c1ccccc1)n1c(=O)n2n(c1=O)[C@H]1[C@H](O)[C@@H]3O[C@@H]3C(=NOCC(C)C)[C@H]1CC2 , I found its composite z-score recorded as -0.086

----------
# test description: A549 cell viability effects, profiling panel, calcein-AM fluorescence, 48 h, basal (AID 1162); note: test concentration not given here
# run parameters: higher = more signal
Please note: yes (1) applies when z-score is 0.2 or greater, and no (0) applies otherwise.

Recorded results for 9 compounds are shown here.
* COc1ccccc1CN1C(=O)c2ccccc2[C@@H](C(=O)NCC(F)(F)F)[C@@H]1c1ccc(CO)cc1 | yes (1)
* COc1cccc([C@H]2Oc3ccc(OC)cc3C(=NO[C@H](C)c3cn([C@@H]4COC[C@H]4O)nn3)[C@@H]2O)c1 | no (0)
* CO[C@@H]1COC(=O)CC=C[C@@H](C)COC(=O)[C@H](COCc2ccccc2)NC(=O)CC=C[C@H]1C | yes (1)
* CO[C@@H]1COC(=O)CCC[C@@H](C)[C@H](OC)COC(=O)CCC[C@H]1C | no (0)
* CO[C@H]([C@@H](C)[C@H](OC)c1ccccc1)[C@H](C)[C@@H](OC)[C@H](C)C(C)=O | yes (1)
* CC(=O)OC[C@H]1O[C@H](CCON=C(C)CCN2CCc3nc(-c4ccccc4)c(-c4ccccc4)cc3C2)C=C[C@@H]1OC(C)=O | yes (1)
* N#Cc1ccc(NN2C(C(O)c3cc(C(F)(F)F)cc(C(F)(F)F)c3)C=CC3C(=O)N(c4ccccc4)C(=O)C32)cc1 (stereo not given) | no (0)
* COC(=O)[C@@]1(Cc2ccccc2)[C@H]2c3cc(C(=O)N4CCCC4)n(Cc4ccccn4)c3C[C@H]2CN1C(=O)c1ccccc1 | no (0)
* CCN1C(=O)[C@H]2[C@H]3[C@H](O)[C@H](O)CC(=NOCC=C(C)CCC=C(C)C)[C@H]3CC[C@H]2C1=O | no (0)

Now let's try a different one.
Ask: Hello, I need to know if CCOC(=O)CCN1C(=O)[C@H]2[C@H]3[C@H](O)C=CC(=O)[C@@H]3CC[C@H]2C1=O has measured z-score not below 0.2. Thanks!
Reply: no (0)

----------
# test description: HepG2 cell viability effects, profiling panel, calcein-AM fluorescence, 48 h, basal (AID 1164); note: test concentration not given here
# run parameters: higher = more signal
Please note: fulfilled applies when z-score is -0.6 or greater, and not fulfilled applies otherwise.

Ask: Hello, I need to know if COC(=O)[C@H](C)NC(=O)CCC1CC(OC(=O)NCCc2ccc(F)cc2)CC2(CCCC(COC(=O)NCCc3ccc(Cl)cc3)O2)O1 (stereo not given in full) has measured z-score not below -0.6. Thanks!
Reply: fulfilled

Ask: Hello, I need to know if O=C1[C@H]2[C@H]3[C@H](O)[C@H](O)CC(=NOCc4ccccc4)[C@@H]3CC[C@H]2C(=O)N1C1CCCCC1 has measured z-score not below -0.6. Thanks!
Reply: not fulfilled

Ask: Hello, I need to know if CC(C)[C@@H](OCc1ccccc1)[C@H](C)C=NO[C@H](C)c1cn([C@H](CO)Cc2ccccc2)nn1 has measured z-score not below -0.6. Thanks!
Reply: fulfilled

Ask: Hello, I need to know if CN1C(=O)C2C=CC(C(O)c3ccc(I)cc3)N(NC(=O)OC(C)(C)C)C2C1=O (stereo not given) has measured z-score not below -0.6. Thanks!
Reply: not fulfilled

----------
# test description: small-molecule microarray binders of probe aShh, primary screen, biochemical, biotinylated probe, 635/667 nm fluorescence (AID 1114);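 note: probe is biotin-labelled aShh protein from a stem cell growth factor screen; measures binding of labelled protein to compounds printed on the slide; score merges feature fluorescence at 667 nm with signal-to-noise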
# run parameters: higher = more signal
Please note: 1 applies when composite z-score is -0.02 or greater, and -1 applies otherwise.

Recorded results for 5 compounds are shown here.
• COc1ccc(COC(=O)NN=C2C[C@@H](O)[C@@H](O)[C@@H]3[C@@H]4C(=O)N(Cc5ccc6c(c5)OCO6)C(=O)[C@@H]4CC[C@@H]23)cc1 = 1
• CCOC(=O)[C@H](CC(C)C)NC(=O)CCC1CC(OC(=O)NCc2cccc3ccccc23)CC2(CCCC(COC(=O)NCCc3ccccc3OC)O2)O1 (some centres not stated) = -1
• O=C1[C@H]2[C@H]3[C@H](O)[C@H](O)CC(=NOCc4ccccc4)[C@H]3CC[C@H]2C(=O)N1C[C@@H]1CCCO1 = -1
• CN(C)C(=O)[C@@]1(Cc2ccccc2)N=C(c2ccc(OCCCO)cc2)O[C@H]1c1ccccc1CN=[N+]=[N-] = 1
• CN(C)CCCNC(=O)[C@@H]1c2ccccc2C(=O)N(Cc2cc(F)cc(C(F)(F)F)c2)[C@H]1c1ccc(CO)cc1 = -1

Now let's try a different one.
Ask: Hello, I need to know if CC(C)(C)OC(=O)CC[C@]1(C(N)=O)COC(c2ccc(OCCCO)cc2)=N1 has measured composite z-score not below -0.02. Thanks!
Reply: 1
